Tested on: Digitaria sanguinalis (DIGSA)
Test: Example A post-emergence herbicidal activity, glasshouse pot test
Format: in vivo
Conditions: 360 h, rate 125 g/ha, evaluated 15 days after spraying, read-out: DIGSA post-emergence activity (100=total damage to plant; 0=no damage to plant)
Assign True whenever pest or weed control at 125 g/ha does not fall below 80%; assign False whenever it does.

# molecule, assigned-class
data = [
    ("CON1CCC2(CC1)NC(=O)C(c1cc(-c3ccc(Cl)cc3)ccc1C)C2=O (stereo not drawn) [Compound T9]", "True"),
    ("CCOC(=O)OC1=C(c2cc(-c3ccc(Cl)cc3)c(C)cc2C)C(=O)NC12CCN(OC)CC2 [Compound P53]", "False"),
]

Kindly determine if pest or weed control at 125 g/ha recorded for CCOC(=O)OC1=C(c2ccc(Cl)cc2Cl)C(=O)NC12CCN(OC)CC2 [Compound P16] is above or exactly 80%.
False

Is pest or weed control at 125 g/ha for C=CCOC(=O)OC1=C(c2c(C)cc(C)cc2C)C(=O)NC12CCN(OC)CC2 [Compound P43] at or above 80%?
False

Item CON1CCC2(CC1)NC(=O)C(c1c(C)cc(-c3ccc(Cl)cc3)cc1C)C2=O (stereo not drawn) [Compound T23] with pest or weed control at 125 g/ha of 80% or above?
True

For this molecule, is measured pest or weed control at 125 g/ha 80% or higher? CCOC(=O)OC1=C(c2c(C)cc(-c3ccc(Cl)cc3)cc2C)C(=O)NC12CCN(OC)CC2 [Compound P70]
True

Is pest or weed control at 125 g/ha at least 80%? Consider CCOC(=O)OC1=C(c2cc(-c3ccc(Cl)cc3)ccc2C)C(=O)NC12CCN(OC)CC2 [Compound P29]
True
